molecular target: Methyl-CpG-binding domain protein 4 (Homo sapiens) (UniProt O95243); settings: Compound Concentration 10.0 uM, Hit No;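 further: MBD4 activity read as fluorescence at 594 nm from cleavage and release of a quenched duplex DNA oligonucleotide, with APE1 coupled to incise the strand and raise turnover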
Sequence (O95243 whole entry, the tested form may be a part): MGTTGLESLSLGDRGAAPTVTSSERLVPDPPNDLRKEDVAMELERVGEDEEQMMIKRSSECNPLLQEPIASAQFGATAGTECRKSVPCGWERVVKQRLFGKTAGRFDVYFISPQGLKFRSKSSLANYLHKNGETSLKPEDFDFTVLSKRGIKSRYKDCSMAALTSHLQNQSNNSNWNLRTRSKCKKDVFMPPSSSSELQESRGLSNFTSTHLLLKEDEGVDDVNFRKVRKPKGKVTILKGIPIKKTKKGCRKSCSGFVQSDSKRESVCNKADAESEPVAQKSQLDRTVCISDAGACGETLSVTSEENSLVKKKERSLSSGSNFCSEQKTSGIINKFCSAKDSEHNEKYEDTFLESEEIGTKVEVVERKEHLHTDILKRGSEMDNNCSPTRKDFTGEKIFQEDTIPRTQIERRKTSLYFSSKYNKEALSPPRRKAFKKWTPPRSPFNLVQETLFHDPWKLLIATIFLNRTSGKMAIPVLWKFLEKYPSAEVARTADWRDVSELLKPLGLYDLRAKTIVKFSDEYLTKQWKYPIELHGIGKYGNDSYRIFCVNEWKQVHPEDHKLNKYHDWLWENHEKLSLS
Description: Inhibition of MBD4 by quantifying inhibition of MBD4-mediated cleavage and dissociation of quenched duplex DNA oligonucleotides, measured as fluorescence at 594 nm. To generate a functional strand incision and increase turn-over this assay is coupled to APE1.
Where a SMILES comes first, the peptide text is derived from it.
# binarize inhibition: threshold 30% inclusive, high side 1, low side -1

Exercise: Identify whether the reported inhibition of the following molecule is 30% or greater: "Cc1nn(C)c2nc(NNC(=O)Nc3cc(Cl)nc(Cl)c3)cc(C(C)C)c12"
Key: -1

Exercise: Has "CCOC(=O)Nc1ccc2c(c1)N(C(=O)CN(CC)CC)c1ccccc1CC2" a recorded inhibition greater than or equal to 30%?
Key: 1

Exercise: I'd appreciate it if you could say whether Cc1cccc(C2CN(C)CCc3c2cc(O)c(O)c3Cl)c1 (stereo not drawn) has inhibition at least equal to 30%.
Key: -1

Exercise: Is it the case that "COc1cc(OC)cc(C(=O)NNC(=O)Nc2cccc3ccccc23)c1" has inhibition reaching or exceeding 30%?
Key: -1

Exercise: inhibition >= 30% for CC[C@H](C)[C@H](NC(=O)[C@H](Cc1ccc(O)cc1)NC(=O)[C@@H](NC(=O)[C@H](CCCNC(=N)N)NC(=O)[C@@H](N)CC(=O)O)C(C)C)C(=O)N[C@@H](Cc1cnc[nH]1)C(=O)N[C@H](C)C(=O)O (HELM PEPTIDE1{D.R.V.Y.I.H.[dA]}$$$$V2.0) ?
Key: -1

Exercise: Given the entry "COc1ccc(OC)c(-c2ccc(NC(=O)c3ccncc3F)cc2)c1" , answer whether its inhibition meets or surpasses 30%.
Key: -1

Exercise: Determine whether measured inhibition meets or exceeds 30% for "CCCCOCCOc1nc(-c2ccc(C(=O)O)c(F)c2)sc1C"
Key: 1

Exercise: Reported inhibition at or above 30%? "FC(F)(F)c1ccc2c(c1)nc(-c1cccnc1)n2C1CC1"
Key: 1

Exercise: Form field: inhibition at least 30%? Entry: "CCOC(=O)c1ncn2c1[C@@H]1CCCN1C(=O)c1cc(OC)ccc1-2"
Key: -1

Exercise: Hello, I need to know if "Cc1nc(C(=O)N2CCC[C@H]2Cc2nnc(-c3ccccc3)o2)c(-c2ccccc2F)s1" has measured inhibition not below 30%. Thanks!
Key: -1

Exercise: API: above_or_equal(metric=inhibition, cutoff=30%) for item "CN[C@@H](C)C/C=C/c1cncc(OC(C)C)c1"
Key: -1

Exercise: Please indicate if the recorded inhibition for "CCCCCCCC/C=C\CCCCCCCC(=O)NCc1ccc(O)c(OC)c1" meets or exceeds 30%.
Key: -1

Exercise: Is inhibition for "COc1cnccc1Nc1nc(-c2nn(Cc3c(F)cc(OCCO)cc3F)c3ccccc23)ncc1OC" at or above 30%?
Key: 1

Exercise: Record "O=C(O)C[C@H]1CCc2c1[nH]c1ccc(OCc3ccc(C4CCCC4)c(C(F)(F)F)c3)cc21" ; criterion: inhibition no lower than 30%. Met?
Key: 1

Exercise: inhibition >= 30% for "CN(CCOc1ccc(C[C@H](Nc2ccccc2C(=O)c2ccccc2)C(=O)O)cc1)c1ccccn1" ?
Key: 1

Exercise: Hi, just wondering whether COc1cc(C(=O)N(CCC2CCCN2C)C/C(C)=C/c2ccccc2F)cc(OC)c1OC (stereo not drawn) shows inhibition of 30% or higher.
Key: -1

Exercise: Is it the case that "Cc1cccc(S(=O)(=O)N(C)[C@H](C)CCN2CCC(C)CC2)c1" has inhibition reaching or exceeding 30%?
Key: -1

Exercise: Given "Nc1ccc(C(=O)Nc2cccc(-c3nc(N4CCOCC4)c4oc5ncccc5c4n3)c2)cn1" , state whether its inhibition is at least 30%.
Key: -1

Exercise: Please indicate if the recorded inhibition for "C[C@]1(C(=O)N(CCCC(=O)O)Cc2cccc(Cl)c2)CCN1C(=O)c1csc2ccccc12" meets or exceeds 30%.
Key: -1

Exercise: Does inhibition meet or surpass 30% for CS(=O)(=O)Nc1c(O)ccc2c1CCCC2C1=NCCN1 (stereo not drawn) ?
Key: -1

Exercise: Say whether Cn1c(-c2csc(C3CCN(CC4=NC5N=CC=CC5N4)CC3)n2)nc2ccccc21 (stereo not drawn) shows inhibition of 30% or more.
Key: -1

Exercise: Please check the record "O=C(O)c1ccccc1S(=O)(=O)NCCCCN1C(=O)c2cccc3cccc(c23)C1=O" and state if its inhibition is at or above 30%.
Key: -1

Exercise: Item "CCCCC[C@H](O)/C=C/[C@H]1CCC(=O)[C@@H]1CCCCCCC(=O)O" with inhibition of 30% or above?
Key: -1

Exercise: Say whether Cc1ccccc1C(=O)Nc1ccc(C(=O)N2CCCC(O)c3cc(Cl)ccc32)c(C)c1 (stereo not drawn) shows inhibition of 30% or more.
Key: -1

Exercise: Does the reported inhibition for "Fc1cccc(/C=N/N=C/c2cccc(F)c2)c1" fall at or above the 30% mark?
Key: -1

Exercise: For this molecule, is measured inhibition 30% or higher? "Cc1c(N2CCCC2)nc2ccc(Br)cc2c1C(=O)NC[C@H](CCC(=O)O)c1ccccc1Cl"
Key: 1

Exercise: Please indicate if the recorded inhibition for "N#CN1CC[C@@H](C(=O)Nc2nc3c(s2)CN(C(=O)CN=[N+]=[N-])CC3)C1" meets or exceeds 30%.
Key: 1

Exercise: I'd appreciate it if you could say whether "CC(C)(O)[C@H](F)CN1Cc2cc(NC(=O)c3cnn4cccnc34)c(N3CCOCC3)cc2C1=O" has inhibition at least equal to 30%.
Key: -1

Exercise: Quick check, inhibition >= 30%? "NCCc1c[nH]c2ccc(O)cc12"
Key: -1

Exercise: Given "COc1cc(NC(=O)CCN2CCC(OC(=O)Nc3ccccc3-c3ccccc3)CC2)c(Cl)cc1CNC[C@H](O)c1ccc(O)c2[nH]c(=O)ccc12" , state whether its inhibition is at least 30%.
Key: -1

Exercise: Identify whether the reported inhibition of the following molecule is 30% or greater: "Cn1ncnc1COc1nn2c(-c3c(F)cccc3F)nnc2cc1C1CCC1"
Key: -1

Exercise: Is it the case that "Cc1oc2ccccc2c1Cc1cc(I)c(OCC(=O)O)c(I)c1" has inhibition reaching or exceeding 30%?
Key: 1

Exercise: Quick check, inhibition >= 30%? "NS(=O)(=O)c1cncc(-c2nc(NCc3ccccn3)c3c(-c4ccccc4)cccc3n2)c1"
Key: -1

Exercise: Decide: inhibition of "C[C@H](NC(=O)c1cnc2n1[C@](C)(Cc1ccc(C#N)cc1)C(=O)N2c1cc(Cl)c(F)c(Cl)c1)C(=O)NC1(c2ccccn2)CC1" >= 30%?
Key: 1

Exercise: Could you tell me if the measured inhibition of OCCOCCN1CCN(C(c2ccccc2)c2ccc(Cl)cc2)CC1 (stereo not drawn) reaches 30% or more?
Key: -1

Exercise: In plain terms: is recorded inhibition at least 30% for "COC(=O)/C=C/c1cccc(N(Cc2ccc(-c3ccc(N(C)C)cc3)cc2)C(=O)C2CCCCC2)c1" ?
Key: 1

Exercise: Check if inhibition >= 30% (inclusive). Item: "CCC(=O)Nc1cccc(Oc2nc(Nc3ccc(N4CCN(C)CC4)cc3OC)ncc2Cl)c1"
Key: -1

Exercise: Could you please find out whether "Cc1cc(OCCC(C)(C)O)cc(C)c1-c1ccc(F)c2c1CC[C@H]2Oc1ccc2c(c1)OC[C@H]2CC(=O)O" has inhibition that meets 30% or exceeds it?
Key: 1

====

biological target: Endonuclease 8-like 1 (Homo sapiens); conditions: Compound Concentration 10.0 uM, Hit No;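 further: fluorescence at 594 nm from quenched duplex DNA oligonucleotides released by NEIL1 cleavage and strand separation, reported as reduction of this enzyme activity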
Description: Inhibition of NEIL1 by quantifying inhibition of NEIL1-mediated cleavage and dissociation of quenched duplex DNA oligonucleotides, measured as fluorescence at 594 nm.
Field: inhibition. Provide a value for each of the molecules that follow.
Quick reminder: number only, in %, skip the unit.

Exercise: # return recorded inhibition for input "COc1ccc(NC(=O)[C@@H]2C[C@H](C)CC[C@H]2C(C)C)cc1"
Key: -2.36

Exercise: Identify measured inhibition associated with "CC1(C)CCC(C)(C)c2cc(NC(=O)c3ccc(C(=O)O)cc3)ccc21"
Key: -4.53

Exercise: Write down inhibition measured for item "CO[C@H]1/C=C/O[C@@]2(C)Oc3c(C)c(O)c4c(O)c(c(/C=N/N5CCN(C)CC5)c(O)c4c3C2=O)NC(=O)/C(C)=C\C=C\[C@H](C)[C@H](O)[C@@H](C)[C@@H](O)[C@@H](C)[C@H](OC(C)=O)[C@@H]1C"
Key: -4.08

Exercise: For "Cc1cc(-c2ccc3c(c2)CC[C@H]3N2CC3(CCN(C(=O)Cc4cn5cc(C)sc5n4)CC3)C2)ncn1" , write its inhibition.
Key: -1.18

====

Would you mind telling me the reported inhibition of each entry?
Target: Endonuclease III-like protein 1 (Homo sapiens);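 further: enzyme assay tracking NTHL1 cutting and release of a quenched double-stranded DNA oligo substrate, read as fluorescence at 594 nm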
Sequence (whole entry): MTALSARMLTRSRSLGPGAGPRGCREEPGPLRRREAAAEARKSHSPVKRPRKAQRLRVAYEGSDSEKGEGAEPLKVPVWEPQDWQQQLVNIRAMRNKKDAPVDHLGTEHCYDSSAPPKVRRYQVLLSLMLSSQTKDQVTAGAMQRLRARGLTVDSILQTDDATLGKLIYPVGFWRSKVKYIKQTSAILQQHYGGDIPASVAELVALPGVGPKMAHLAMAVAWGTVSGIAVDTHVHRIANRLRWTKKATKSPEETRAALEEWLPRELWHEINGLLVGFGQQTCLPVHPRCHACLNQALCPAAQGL
Details: Compound Concentration 10.0 uM, Hit No
Description: Inhibition of NTHL1 by quantifying inhibition of NTHL1-mediated cleavage and dissociation of quenched duplex DNA oligonucleotides, measured as fluorescence at 594 nm.
*1 amine or outer side, *2 acyl side, *3 side chain or, on linkers, in order; H or OH if unused. Where a SMILES comes first, the peptide text is derived from it. Bridges are numbered along the chain shown (N, C = ends). X1 = O=C(CCC[*:2])[*:1]

Exercise: Given "O=C(O)COc1cccc(-c2ocnc2-c2nc(-c3ccccc3)c(-c3ccccc3)o2)c1" , respond with its inhibition.
Key: 8.82%

Exercise: Provide measured inhibition value, entry: "CO[C@@H](C)c1c(Nc2ccc([C@H](N(C)C(=O)C3CCS(=O)(=O)CC3)C(F)(F)F)cc2)cnc2cc(Cl)nn12"
Key: -3.92%

Exercise: Annotate the compound "COC[C@@H](c1ccc(C(F)(F)F)cc1)N1CCN(C2(C)CCN(C(=O)c3c(C)ncnc3C)CC2)C[C@@H]1C" with its measured inhibition.
Key: 16.2%

Exercise: Give the value of inhibition reported for the following: "CCCCC[C@H](O)/C=C/[C@H]1[C@H](O)CC(=O)[C@@H]1CCCCCCC(=O)O"
Key: 22.9%

Exercise: Look up and report measured inhibition for this entry: "Cc1nnc2ccc(-c3cccc(C(F)(F)F)c3)nn12"
Key: 22%

Exercise: Could you please provide reported inhibition for "Cn1cncc1[C@](O)(COc1ccc(C#N)cc1-c1ccc(OC(F)(F)F)cc1)c1ccc(C#N)cc1" ? Thanks!
Key: 10.6%

Exercise: Output inhibition of "Cc1cc(-n2nc(Cc3cc(F)cc(C(F)(F)F)c3)nc2C)ccc1C(N)=O"
Key: 7.26%

Exercise: Please look at this compound and report its inhibition: "O=C(O)c1ccc2c(c1)nc(Nc1cccc(Cl)c1)c1ccncc12"
Key: 2.18%

Exercise: Return inhibition (reported value) for this compound: CC[C@H](C)[C@@H]1NC(=O)[C@H](Cc2ccc(OC)cc2)NC(=O)CCCSC[C@@H](C(=O)N2CCC[C@H]2C(=O)N[C@@H](CC(C)C)C(=O)NCC(N)=O)NC(=O)[C@H](CC(N)=O)NC(=O)[C@H](CCC(N)=O)NC1=O (Y(Me)IQNCPLG-NH2; linker N-5 via X1)
Key: 33.4%

Exercise: Hello, please tell me recorded inhibition for this one: CCC1(C2=NCCN2)Cc2ccccc2O1 (configuration not stated)
Key: 1.19%

Exercise: For the compound "Cc1cc(C(=O)N2CCN(C3CN(C(=O)c4ccc(-c5ccccc5)cc4)C3)CC2)no1" , report inhibition.
Key: 1.34%

Exercise: Quick one: give measured inhibition for "CCNC1(C(N)=O)CCN(c2ncnc3c2nc(-c2ccccc2Cl)n3-c2ccc(Cl)cc2)CC1"
Key: 17.3%

Exercise: For the compound "CN(C)C(=O)c1sc2nc(N3CCC(S(C)(=O)=O)CC3)cc(C(F)(F)F)c2c1N" , give its measured inhibition value.
Key: 2.05%

Exercise: Identify the reported inhibition for the following entry. "CSc1nc(NC2CCCC2)c([N+](=O)[O-])c(NC2CCCC2)n1"
Key: 21%

Exercise: Could you please provide reported inhibition for "C=CC(=O)Nc1ccc2[nH]c(=O)n(C3CCN(Cc4ccc(-c5nc6cc[nH]c(=O)c6cc5-c5ccccc5)cc4)CC3)c2c1" ? Thanks!
Key: 2.5%

Exercise: State, in one line, measured inhibition of "O=C(Nc1cc(C(F)(F)F)cc(C(F)(F)F)c1)c1cc(Cl)ccc1O"
Key: 6.35%

Exercise: Determine from records and report inhibition for "CC(C)(O)c1ccccc1CC[C@@H](SCC1(CC(=O)O)CC1)c1cccc(/C=C/c2ccc3ccc(Cl)cc3n2)c1"
Key: 9.99%
